biological target: Bcl-xL, Q07817; assay: peptide SPOT array, c-Myc-tagged receptor at 1 uM or 100 nM, anti-c-Myc-Cy3
Sequence (Q07817 1-209): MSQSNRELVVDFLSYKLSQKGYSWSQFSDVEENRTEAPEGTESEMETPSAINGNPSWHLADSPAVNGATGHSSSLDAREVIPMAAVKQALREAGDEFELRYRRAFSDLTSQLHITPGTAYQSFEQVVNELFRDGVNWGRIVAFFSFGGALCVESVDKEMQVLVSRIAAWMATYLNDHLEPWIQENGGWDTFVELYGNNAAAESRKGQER
API: label(entry) gives true if the entry's SPOT signal as a fraction of Bim BH3's signal on the same receptor and array is strictly smaller than 0.08; on equality or larger values it gives false.

{"BINDER": "VDVIDDHERGLIRNGRDFLLALERQG [DEDD]", "LABEL_VALUE": "true"}
{"BINDER": "IVGGCVVGIAMARFADFIRGMLKLIL [DIRC2]", "LABEL_VALUE": "false"}
{"BINDER": "PFGLQGNSEYLIEFSRNLGKSSEHLL [CGNL1]", "LABEL_VALUE": "true"}
{"BINDER": "FLRINMVSMKLLAYAMDFWSKGQLKA [PANK1]", "LABEL_VALUE": "false"}
{"BINDER": "SQGKHGFTMAMNAFLDMTNEEFRQMM [CTSL2]", "LABEL_VALUE": "true"}
{"BINDER": "LFWTPLLVVLDAGLGDTEAQQTTLHP [SGCA]", "LABEL_VALUE": "true"}
